- TARGET ENTITY: angiotensin II receptor
- METHOD DESCRIPTION: Adrenal Glomerulosa Test System: displacement of I^125-angiotensin II binding to rat adrenal membranes
- STATED CONDITIONS: I^125-angiotensin II 0.1 nM, room temperature, 90 minutes, KI by Cheng Prusoff equation
pKi: −log10 of the molar value.
I would appreciate it if you labelled entries yes (1) when pKi is 7 or higher, otherwise no (0).

QUERY: Is the recorded value of pKi equal to or greater than 7 for this compound? CCCCCC(C(=O)O)n1ccc2cc(-c3ccccc3-c3nn[nH]n3)ccc21 (stereo not drawn) [Example 22]
RESULT: no (0)

QUERY: Would you kindly repeat that for CCCCCCC(CC(=O)O)n1ccc2cc(-c3ccccc3-c3nn[nH]n3)ccc21 (stereo not drawn) [Example 21] ?
RESULT: no (0)

QUERY: Now give it for CCCCC(c1ccc(C(F)(F)F)cc1)n1ccc2cc(-c3ccccc3-c3nn[nH]n3)ccc21 (stereo not drawn) [Example 29] too.
RESULT: no (0)

QUERY: Cool, now CCCCCCC(C(=O)O)n1cnc2cc(-c3ccccc3-c3nn[nH]n3)ccc21 (stereo not drawn) [Example 3]
RESULT: no (0)

QUERY: Would you mind doing CCCCCCC(C(=O)N1CCC[C@H]1C(=O)O)n1cnc2cc(-c3ccccc3-c3nn[nH]n3)ccc21 (stereo partly drawn) [Example 9] as well?
RESULT: yes (1)

QUERY: And CCCCCCC(C(=O)O)n1ncc2cc(-c3ccccc3-c3nn[nH]n3)ccc21 (stereo not drawn) [27 2H] ?
RESULT: no (0)

QUERY: Also need CCCCCCC(C(=O)O)n1cc(Br)c2cc(-c3ccccc3-c3nnn[nH]3)ccc21 (stereo not drawn) [Example 26] , thanks.
RESULT: no (0)

QUERY: Continue with CCCCCCC(c1nccn1C)n1cnc2cc(-c3ccccc3-c3nnn[nH]3)ccc21 (stereo not drawn) [Example 14]
RESULT: no (0)

QUERY: Try CCCCC(c1cccc(C(F)(F)F)c1)n1ccc2cc(-c3ccccc3-c3nn[nH]n3)ccc21 (stereo not drawn) [Example 28] next.
RESULT: no (0)

QUERY: Repeat for the following compound: CCCCCCC(C(=O)O)n1ccc2cc(-c3ccccc3C(=O)O)ccc21 (stereo not drawn) [Example 1]
RESULT: no (0)

QUERY: How about this compound: CCCCCCC(C(=O)N[C@@H](CO)C(=O)O)n1cnc2cc(-c3ccccc3-c3nn[nH]n3)ccc21 (stereo partly drawn) [Example 42]
RESULT: no (0)

QUERY: Can you check CCCCCCC(C(=O)N1CCC(C(=O)O)C1)n1cnc2cc(-c3ccccc3-c3nn[nH]n3)ccc21 (stereo not drawn) [Example 44] next?
RESULT: no (0)

QUERY: And then CCCCCCC(C(=O)N1CC(O)C[C@H]1C(=O)O)n1cnc2cc(-c3ccccc3-c3nn[nH]n3)ccc21 (stereo partly drawn) [Example 13] , what is it?
RESULT: yes (1)

* * *

- TARGET ENTITY: angiotensin II receptor
- METHOD DESCRIPTION: Adrenal Glomerulosa Test System: displacement of I^125-angiotensin II binding to rat adrenal membranes
- STATED CONDITIONS: I^125-angiotensin II 0.1 nM, room temperature, 90 minutes, KI by Cheng Prusoff equation
Exercise: for every item that follows, state its recorded Ki.

QUERY: // query Ki value for entry CCCCCCC(C(=O)O)n1c(C)nc2cc(-c3ccccc3-c3nnn[nH]3)ccc21 (stereo not shown)
RESULT: 0.36 µM

QUERY: Try this compound next: CCCCCCC(C(=O)O)n1ccc2cc(-c3cccc(O)c3C(=O)O)ccc21 (stereo not shown)
RESULT: 9.45 µM

QUERY: // next record CCCCCCC(C(=O)O)n1cc(Cc2ccccc2)c2cc(-c3ccccc3-c3nn[nH]n3)ccc21 (stereo not shown)
RESULT: 13.7 µM

QUERY: Can you check CCCCCCC(C(=O)N1CC2(C[C@H]1C(=O)O)OCCO2)n1cnc2cc(-c3ccccc3-c3nn[nH]n3)ccc21 (stereo partly shown) next?
RESULT: 0.25 µM
